- Target system: CHO cells over-expressing the EP3 receptor (Homo sapiens, UniProt P43115)
- Assay info: CHO cell cAMP assay; EP3 cAMP antagonist dose response (sulprostone reference), HTRF
- Recorded conditions: sulprostone 700 nM (EC80) and FSK 2 μM (EC70); read-out: CHO_cAMP IC50
Decide using IC50 alone. Strictly below 80 nM: Condition met. Equal to or above 80 nM: Condition not met.

For orientation, consider the following solved cases.
Mol smiles	Group
COc1ccc(Cl)cc1S(=O)(=O)NC(=O)NC/C=C1\COCc2cnn(Cc3ccc(Cl)cc3Cl)c21	Condition met
O=C(NC/C(F)=C1/CCCn2nnc(Cc3ccccc3)c21)NS(=O)(=O)c1cc(Cl)c(Cl)s1	Condition not met
O=C(NC/C=C1\CCCc2cnn(-c3ccc(Cl)cc3Cl)c21)NS(=O)(=O)c1cc(Cl)c(Cl)s1	Condition met

Prompt: # TODO verify IC50 < 80 nM strictly for this compound: O=C(NC/C=C1\CCCc2cnn(Cc3ccc(Cl)cc3Cl)c21)NS(=O)(=O)c1nc2ccccc2s1
Response: Condition met

Prompt: # TODO verify IC50 < 80 nM strictly for this compound: O=C(NC/C(F)=C1/CCCc2onc(-c3ccc(Cl)cc3)c21)NS(=O)(=O)c1ccc(Cl)cc1
Response: Condition not met

Prompt: # TODO verify IC50 < 80 nM strictly for this compound: O=C(NC/C=C1\CCCc2cnn(-c3ccc(-c4ccccc4)cc3)c21)NS(=O)(=O)c1cc(Cl)c(Cl)s1
Response: Condition met

Prompt: # TODO verify IC50 < 80 nM strictly for this compound: O=C(NS(=O)(=O)c1ccc(Cl)cc1)OC/C=C1\c2c(cnn2Cc2ccc(Cl)cc2Cl)CCC1(F)F
Response: Condition not met

Prompt: # TODO verify IC50 < 80 nM strictly for this compound: O=C(NC/C(F)=C1\CCCc2cnn(Cc3ccc(Cl)cc3Cl)c21)NS(=O)(=O)c1cccc(Cl)c1
Response: Condition met

Prompt: # TODO verify IC50 < 80 nM strictly for this compound: COc1ccc(Cl)cc1S(=O)(=O)NC(=O)NC/C=C1\CCCc2cnn(Cc3ccc(Cl)cc3Cl)c21
Response: Condition met

Prompt: # TODO verify IC50 < 80 nM strictly for this compound: O=C(NC/C=C1\CCCc2cnn(-c3ncc(Br)cn3)c21)NS(=O)(=O)c1ccc(Cl)cc1
Response: Condition not met

Prompt: # TODO verify IC50 < 80 nM strictly for this compound: O=C(NS(=O)(=O)c1cc(Cl)c(Cl)s1)OC/C=C1\CCCc2cnn(Cc3ccc(Cl)cc3Cl)c21
Response: Condition met

Prompt: # TODO verify IC50 < 80 nM strictly for this compound: COc1ccc(S(=O)(=O)NC(=O)C/C=C2\CCCc3cnn(Cc4ccc(Cl)cc4Cl)c32)cc1
Response: Condition not met

Prompt: # TODO verify IC50 < 80 nM strictly for this compound: O=C(CC/C(F)=C1\COCc2cnn(Cc3ccc(Cl)cc3Cl)c21)NS(=O)(=O)c1cc(Cl)c(Cl)s1
Response: Condition met

Prompt: # TODO verify IC50 < 80 nM strictly for this compound: COc1ccccc1S(=O)(=O)NC(=O)NC/C=C1\CCCc2cnn(Cc3ccc(Cl)cc3Cl)c21
Response: Condition not met

----------
Readings of pKi for the listed compounds
- Target system: EP3 membrane (EP3 receptor) (Homo sapiens, UniProt P43115)
- Construct: purchased Millipore HTS092M
- Assay info: [3H]-PGE2 binding; EP3 competition binding (SPA)
pKi is defined as minus the log10 of a concentration measured in mol/L.

Look over these answered cases.
Mol smiles	pKi
COc1ccc(-n2ncc3c2/C(=C/CNC(=O)NS(=O)(=O)c2cc(Cl)c(Cl)s2)CCC3)cn1	8.70
CC(C)Cn1ncc2c1/C(=C/CNC(=O)NS(=O)(=O)c1ccc(Cl)cc1)CCC2	6.04
O=C(NC/C=C1\CCCc2cnn(Cc3ccc(Cl)cc3Cl)c21)NS(=O)(=O)c1cnc2ccccc2c1	7.72

Okay, next one:
Prompt: Identify measured pKi corresponding to Cc1nc(C)c(S(=O)(=O)NC(=O)NC/C=C2\CCCc3cnn(Cc4ccc(Cl)cc4Cl)c32)s1
Response: 8.70

----------
- Target system: CHO cells over-expressing the EP3 receptor (Homo sapiens, UniProt P43115)
- Assay info: CHO cell cAMP assay; EP3 cAMP antagonist dose response (sulprostone reference), HTRF
- Recorded conditions: sulprostone 700 nM (EC80) and FSK 2 μM (EC70); read-out: CHO_cAMP IC50
Reported metric: pIC50
pIC50 is defined as minus the log10 of a concentration measured in mol/L.

Mol smiles	pIC50
O=C(CC/C=C1\CCCc2cnn(-c3cccc(-c4ccccc4)c3)c21)NS(=O)(=O)c1cc(Cl)c(Cl)s1	8.52
O=C(CC/C=C1\CCCc2cnn(-c3cccc(-c4ccc(Cl)cc4Cl)c3)c21)NS(=O)(=O)c1cc(Cl)c(Cl)s1	7.74
COc1ccc(Cl)cc1S(=O)(=O)NC(=O)CC/C=C1\CCCc2cnn(Cc3ccc(Cl)cc3Cl)c21	8.15
O=C(C/C=C1\CCCc2cnn(Cc3ccc(Cl)cc3Cl)c21)NS(=O)(=O)c1ccc2c(c1)OCCO2	6.18
O=C(NC/C=C1\COCc2cnn(Cc3ccc(Cl)cc3Cl)c21)NS(=O)(=O)c1cc(Cl)c(Cl)s1	9.00

Prompt: Identify measured pIC50 corresponding to O=C(C/C=C1\CCCc2cnn(Cc3ccc(Cl)cc3Cl)c21)NS(=O)(=O)c1ccc(Cl)s1
Response: 7.13

----------
Readings of Ki for the listed molecules
- Target system: EP3 membrane (EP3 receptor) (Homo sapiens, UniProt P43115)
- Construct: purchased Millipore HTS092M
- Sequence (P43115 1-390): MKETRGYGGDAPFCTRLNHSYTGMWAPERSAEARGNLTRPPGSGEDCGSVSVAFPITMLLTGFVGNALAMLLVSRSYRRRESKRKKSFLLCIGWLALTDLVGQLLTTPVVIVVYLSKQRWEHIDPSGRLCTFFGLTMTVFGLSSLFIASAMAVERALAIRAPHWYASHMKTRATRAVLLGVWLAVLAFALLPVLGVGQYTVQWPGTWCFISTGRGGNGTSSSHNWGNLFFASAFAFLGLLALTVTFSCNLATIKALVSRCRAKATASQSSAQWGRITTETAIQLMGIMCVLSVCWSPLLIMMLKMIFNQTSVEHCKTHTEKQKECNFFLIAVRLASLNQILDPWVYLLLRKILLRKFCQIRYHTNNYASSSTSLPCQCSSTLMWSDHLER
- Assay info: [3H]-PGE2 binding; EP3 competition binding (SPA)
- Recorded conditions: unit nM
Quote the value and follow it with the unit of measurement.

Look over these answered cases.
Molecule	Ki
O=C(NC/C=C1\CCCc2cnn(-c3ccc4ccccc4c3)c21)NS(=O)(=O)c1cc(Cl)c(Cl)s1 [Compound #79]	0.4 nM
O=C(NC/C=C1\CCCc2cnn(-c3ccc(C(F)(F)F)cc3)c21)NS(=O)(=O)c1cc(Cl)c(Cl)s1 [Compound #85]	0.4 nM
O=C(CC/C=C1\CCCc2cnn(Cc3ccc(Cl)cc3Cl)c21)NS(=O)(=O)c1cc(Cl)c(Cl)s1 [Compound #8]	0.1 nM
O=C(NC/C=C1\CCCc2cnn(Cc3cnc(-c4ccccc4)nc3)c21)NS(=O)(=O)c1cc(Cl)c(Cl)s1 [Compound #138]	0.4 nM

Prompt: Identify measured Ki corresponding to O=C(NC/C=C1\CCCc2cnn(Cc3ccc(Cl)cc3Cl)c21)NS(=O)(=O)c1cc(Cl)c(Cl)s1 [Compound #7]
Response: 0.5 nM

Prompt: Identify measured Ki corresponding to O=C(NC/C=C1\COCc2cnn(Cc3ccc(Cl)cc3Cl)c21)NS(=O)(=O)c1cc(Cl)c(Cl)s1 [Compound #49]
Response: 0.4 nM

Prompt: Identify measured Ki corresponding to COc1ccc(S(=O)(=O)NC(=O)NC/C(F)=C2\CCCc3[nH]nc(Cc4ccc(Cl)cc4Cl)c32)cc1Cl [Compound #179]
Response: 0.4 nM

Prompt: Identify measured Ki corresponding to O=C(NC/C(F)=C1\COCc2[nH]nc(Cc3ccc(Cl)cc3Cl)c21)NS(=O)(=O)c1cc(Cl)c(Cl)s1 [Compound #147]
Response: 0.4 nM

----------
Readings of pIC50 for the listed compounds
- Target system: CHO cells over-expressing the EP3 receptor (Homo sapiens)
- Sequence (P43115 1-390): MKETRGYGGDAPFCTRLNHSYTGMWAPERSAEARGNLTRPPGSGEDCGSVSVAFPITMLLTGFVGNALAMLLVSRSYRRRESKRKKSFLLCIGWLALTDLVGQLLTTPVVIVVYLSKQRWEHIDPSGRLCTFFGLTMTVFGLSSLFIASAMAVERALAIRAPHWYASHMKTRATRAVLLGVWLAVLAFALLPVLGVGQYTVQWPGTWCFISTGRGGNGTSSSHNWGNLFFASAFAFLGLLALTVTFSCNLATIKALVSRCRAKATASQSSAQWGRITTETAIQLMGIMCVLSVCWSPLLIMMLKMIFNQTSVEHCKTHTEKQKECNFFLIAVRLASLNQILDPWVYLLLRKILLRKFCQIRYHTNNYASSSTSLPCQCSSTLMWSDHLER
- Assay info: CHO cell cAMP assay; EP3 cAMP antagonist dose response (sulprostone reference), HTRF
- Recorded conditions: sulprostone 700 nM (EC80) and FSK 2 μM (EC70); read-out: CHO_cAMP IC50
pIC50 is defined as minus the log10 of a concentration measured in mol/L.

Look over these answered cases.
Mol smiles	Reported metric	Result
CS(=O)(=O)c1ccc(-n2ncc3c2/C(=C/CNC(=O)NS(=O)(=O)c2cc(Cl)c(Cl)s2)CCC3)cc1	pIC50	7.52
COc1ccc(S(=O)(=O)NC(=O)NC/C=C2\CCCc3cnn(Cc4ccc(Cl)cc4Cl)c32)cc1	pIC50	7.54
Cc1nn(Cc2ccc(Cl)cc2Cl)c2c1CCC/C2=C(/F)CNC(=O)NS(=O)(=O)c1cc(Cl)c(Cl)s1	pIC50	7.22
O=C(NC/C=C1\CCCc2cnn(-c3ccc4ccccc4c3)c21)NS(=O)(=O)c1cc(Cl)c(Cl)s1	pIC50	8.70
O=C(CC/C=C1\CCCc2cnn(Cc3ccc(Cl)cc3Cl)c21)NS(=O)(=O)c1ccc(Cl)cc1	pIC50	8.22
O=C(NC/C(F)=C1\CCCc2onc(Cc3ccc(Cl)cc3Cl)c21)NS(=O)(=O)c1cc(Cl)c(Cl)s1	pIC50	8.10

Okay, next one:
Prompt: Identify measured pIC50 corresponding to CN(C/C(F)=C1\CCCc2cnn(Cc3ccc(Cl)cc3Cl)c21)C(=O)NS(=O)(=O)c1cc(Cl)c(Cl)s1
Response: 7.92
